Recorded measurements of efflux ratio at 2 h, 10 μM, one per entry
Test: Transport across Caco-2 cell monolayer
Format: in vitro ADME
Conditions: human, Caco-2; 10 μM, ER = Papp (BL → AP)/Papp(AP → BL)
Experimental: Caco-2 cell (passage 38) was used in the transport experiments. Cells were seeded on polycarbonate filters (12 mm diameter, pore size […]) at 1 × 10^5/cm^2. The cell monolayer was formed 21 days post seeding when the transepithelial electrical resistance (TEER) was above 1,000 Ω• cm^2. […] The four lignans were determined by HPLC-MS method. The efflux rate (ER) was calculated by the formula ER = Papp (BL → AP)/Papp(AP → BL).

Exercise: Can you share its efflux ratio at 2 h, 10 μM? I mean this molecule: "COc1cc2c(c(OC)c1OC)-c1c(cc3c(c1OC)OCO3)C[C@H](C)[C@H](C)C2"
Key: 1.14

Exercise: Moving on to the next molecule: "COc1cc2c(c(OC)c1OC)-c1c(cc(OC)c(OC)c1OC)C[C@H](C)[C@@H](C)C2"
Key: 1.31

Exercise: Moving on to the next molecule: "COc1cc2c(c(OC)c1OC)-c1c(cc(OC)c(OC)c1OC)C[C@](C)(O)[C@@H](C)C2"
Key: 1.09
